Target: T1, human HER-2 extracellular domain (HER-2 ECD) (human, UniProt P04626 23-646)
T1 construct: range 23-646; also called erbB2; HER2 protein
Experiment: Fab-phage binding affinity
Measured metric: log10 IC50 (log10 of the value in nM)
Lab note - IC50 converted to log10 from values in nM.

{"Binder": "Clone B11 (SXH3), purified soluble Fab (Fab, V domains shown, Tryptophan-containing clone) VH: EVQLVESGGGLVQPGGSLRLSCAASGFSIYSSYIHWVRQAPGKGLEWVASIYPYSGYTSYADSVKGRFTISADTSKNTAYLQMNSLRAEDTAVYYCARWWSSAFDYWGQGTLVTVSS VL: DIQMTQSPSSLSASVGDRVTITCRASQDVNTAVAWYQQKPGKAPKLLIYSASSLYSGVPSRFSGSRSGTDFTLTISSLQPEDFATYYCQQSYYYPSTFGQGTKVEIK", "log10 IC50": -0.07}
{"Binder": "B27 (Fab, V domains shown, also called SXH3-B27 Fab-phage) VH: EVQLVESGGGLVQPGGSLRLSCAASGFSISYSSIHWVRQAPGKGLEWVASIYPYYGYTSYADSVKGRFTISADTSKNTAYLQMNSLRAEDTAVYYCARFFFFSSSFFGFDYWGQGTLVTVSS VL: DIQMTQSPSSLSASVGDRVTITCRASQDVNTAVAWYQQKPGKAPKLLIYSASSLYSGVPSRFSGSRSGTDFTLTISSLQPEDFATYYCQQYSYYPYTFGQGTKVEIK", "log10 IC50": 1.86}
{"Binder": "Clone G54 (SX-surface), purified soluble Fab (Fab, V domains shown, Tyrosine-containing clone) VH: EVQLVESGGGLVQPGGSLRLSCAASGFSISSSYIHWVRQAPGKGLEWVASIYPYSGYTSYADSVKGRFTISADTSKNTAYLQMNSLRAEDTAVYYCARYYSYALDYWGQGTLVTVSS VL: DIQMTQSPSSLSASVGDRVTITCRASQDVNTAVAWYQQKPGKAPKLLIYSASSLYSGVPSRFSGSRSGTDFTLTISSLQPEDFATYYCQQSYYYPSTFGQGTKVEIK", "log10 IC50": 0.39}
{"Binder": "Clone G37 (SX-surface), purified Fab (Fab, V domains shown) VH: EVQLVESGGGLVQPGGSLRLSCAASGFSIWWSWIHWVRQAPGKGLEWVASISPSSGWTSYADSVKGRFTISADTSKNTAYLQMNSLRAEDTAVYYCARWWSSAMDYWGQGTLVTVSS VL: DIQMTQSPSSLSASVGDRVTITCRASQDVNTAVAWYQQKPGKAPKLLIYSASSLYSGVPSRFSGSRSGTDFTLTISSLQPEDFATYYCQQWWWWPSTFGQGTKVEIK", "log10 IC50": -0.51}

// below: log10 IC50 requested for another binder
Query: Using the record for Clone YSGR-A-42, purified soluble Fab (Fab, V domains shown, also called clone 42 (YSGR-A); clone 42) VH: EVQLVESGGGLVQPGGSLRLSCAASGFYISSSSIHWVRQAPGKGLEWVAYIYPSSGYTSYADSVKGRFTISADTSKNTAYLQMNSLRAEDTAVYYCARGYYYSYYSGYALDYWGQGTLVTVSS VL: DIQMTQSPSSLSASVGDRVTITCRASQDVNTAVAWYQQKPGKAPKLLIYSASSLYSGVPSRFSGSRSGTDFTLTISSLQPEDFATYYCQQSYSSPSTFGQGTKVEIK , report its log10 IC50.
Response: -0.49

Each recorded value in this set is attributed to patent US20070202552A1.
